# TEST_PARAMETERS: in methanol, 313.15 K
MEASURE_NAME: solubility (mole fraction)
// no unit, no text: just the number

Q: // solubility (mole fraction) lookup, key: `O=C1NS(=O)(=O)c2ccccc21`
Result: 0.0185

----------
# TEST_PARAMETERS: in ethanol, 308.15 K
MEASURE_NAME: solubility (mole fraction)
// no unit, no text: just the number

Q: // solubility (mole fraction) lookup, key: `O=C1NS(=O)(=O)c2ccccc21`
Result: 0.0134

----------
# TEST_PARAMETERS: in acetone, 298.15 K
MEASURE_NAME: solubility (mole fraction)
// no unit, no text: just the number

Q: // solubility (mole fraction) lookup, key: `O=C1NS(=O)(=O)c2ccccc21`
Result: 0.0374
